system: CEM cells HIV-1 protection, formazan growth assay; test: NCI AIDS Antiviral Assay
assay-endpoint: EC50

molecule	EC50
COC(=O)c1ccccc1/C=C1\Cc2ccc3c(c2C1=O)CCCC3	> 200 µM
C=C=C[P+](c1ccccc1)(c1ccccc1)c1ccccc1	> 155 µM
COc1ccc(C2OC(c3ccncc3)=NN2C)cc1F (stereo unspecified)	> 200 µM

Could you tell me which EC50 is on file for N#CC1(C#N)NC(c2ccccc2)C(C#N)(C#N)NC1c1ccccc1 (stereo unspecified) ?
> 200 µM

Could you tell me which EC50 is on file for COC(=O)c1c(C)c2c(c(C)c1C(=O)OC)-c1c(C)ccc3ccc(C)c-2c13 ?
> 100 µM

----------
The compounds listed here are annotated with their pIC50.
system: CEM cells HIV-1 protection, formazan growth assay; experiment: NCI AIDS Antiviral Assay; conditions: measured here: growth of uninfected CEM cells
Notebook: values listed as pIC50 are -log10 of the concentration (mol/L).

compound	study-system	pIC50
COc1cc(OC)c2nc3ccccc3c(NCCC[N+](C)(C)[O-])c2c1[N+](=O)[O-]	CEM cells HIV-1 protection, formazan growth assay	3.88

Could you tell me which pIC50 is on file for CC(C)NCCCCCNc1cccc2cccnc12 ?
4.54

Could you tell me which pIC50 is on file for O=[N+]1[C@H](c2ccccc2)[C@H](c2ccccc2)N1[O-] ?
4.94

Could you tell me which pIC50 is on file for CN1C(=O)c2cccc3cc([N+](=O)[O-])cc(c23)C1=O ?
4.99

Could you tell me which pIC50 is on file for COc1ccccc1NC(=O)CC(=O)n1nc(C)c(N=Nc2ccccc2C(=O)O)c1C ?
3.61

Could you tell me which pIC50 is on file for CN(C)CCN1C(=O)c2ccccc2C1(O)c1ccc(Cl)cc1 (stereo not given) ?
4.35

Could you tell me which pIC50 is on file for Cc1csc(/N=C\c2c(O)c3ccccc3oc2=O)n1 ?
4.44

Could you tell me which pIC50 is on file for CC1CCCN1c1ccnc2cc(Cl)ccc12 (stereo not given) ?
3.54

----------
The molecules listed here are annotated with their pIC50.
tested on: CEM cells HIV-1 protection, formazan growth assay; experiment: NCI AIDS Antiviral Assay; conditions: measured here: growth of uninfected CEM cells
Where a SMILES comes first, the peptide text is derived from it. [ ]: non-standard residue; d: D form. The star is where a group is joined. ξ: configuration not given here. Bz = O=C(c1ccccc1)*; ξC = NC(CS)C(=O)O
Notebook: values listed as pIC50 are -log10 of the concentration (mol/L).

molecule	pIC50
O=C1CSc2ccccc2-n2cccc21	3.98
C=CCC(C(=N)C(C#N)(CC=C)C1=CCCCC1)C1=CCCCC1 (stereo not given)	4.09
Nc1ccccc1C(=O)/C=C/c1ccccc1O	4.28
Cc1ccc([N+](=O)[O-])cc1/C(C#N)=C/c1ccccc1	4.48
CCC1c2cc3n(c(=O)c2COC1O)Cc1c-3nc2ccccc2c1Cl (stereo not given)	5.20
COC(=O)c1cc(C(c2cc(C(=O)OC)c(OC)c(Br)c2C)C(Cl)Cl)c(C)c(Br)c1OC	5.00

Could you tell me which pIC50 is on file for COc1cccc(NC(=O)CC(=O)N2N=C(C)C(N=Nc3ccc(S(=O)(=O)CCOS(=O)(=O)O)cc3)C2=O)c1 (stereo not given) ?
5.52

Could you tell me which pIC50 is on file for O=C(O)c1ccccc1-c1c2ccc(=O)c(Br)c-2oc2c(Br)c(O)ccc12 ?
4.43

Could you tell me which pIC50 is on file for CC1C(=O)C(C)C(c2cccs2)N(N=O)C1c1cccs1 (stereo not given) ?
4.43

Could you tell me which pIC50 is on file for Cc1cc(=O)c2c(o1)-c1ccccc1C(c1ccccc1)c1ccccc1-2 (stereo not given) ?
4.60

Could you tell me which pIC50 is on file for COC(=O)C(CS)NC(=O)CNC(=O)c1ccccc1 (stereo not given) (Bz-Gly-[ξC]-OMe) ?
4.33

----------
test system: CEM cells HIV-1 protection, formazan growth assay; experiment: NCI AIDS Antiviral Assay; details: measured here: growth of uninfected CEM cells
pIC50: −log10 of the molar value.
The molecules listed here are annotated with their pIC50.

Completed entries (count: 5):
molecule	pIC50
Cc1nn(C(=O)c2ccc(Cl)cc2)c2c1C(c1ccc(O)cc1)SC(N)=N2 (configuration not stated)	< 3.70
O=C(Nn1c(-c2ccccc2)nc2ccccc2c1=O)c1ccccn1	3.91
CCC(=O)c1ccc2[nH]c3c(C)c4c(=O)cc(C)[nH]c4c(C)c3c2c1	< 4.00
C1C2CC3CC1CC(c1nn4c(C56CC7CC(CC(C7)C5)C6)nnc4s1)(C2)C3	< 3.70
CCOC(=O)C(=CNC(=S)Nc1c(CC)cccc1C(C)(C)C)C(=O)OCC	< 3.70

Could you tell me which pIC50 is on file for COc1cc(N=CNc2cc(OC)n[n+]([O-])c2)c[n+]([O-])n1 ?
< 3.65

Could you tell me which pIC50 is on file for C=CN1C(=O)[C@H](Oc2ccccc2)[C@@H]1c1ccccc1 ?
4.20

----------
test system: CEM cells HIV-1 protection, formazan growth assay; assay: NCI AIDS Antiviral Assay; conditions: measured here: growth of uninfected CEM cells
pIC50: −log10 of the molar value.
The compounds listed here are annotated with their pIC50.

Lab request: please report pIC50 under test system CEM cells HIV-1 protection, formazan growth assay for CCOc1ccc(Nc2nc(C)c(C(=O)CC(=O)C(=O)Nc3ccc(Cl)c(C(F)(F)F)c3)s2)cc1
< 3.70

Lab request: please report pIC50 under test system CEM cells HIV-1 protection, formazan growth assay for O=C1CCC(=O)c2ccccc2N1
< 2.99

Lab request: please report pIC50 under test system CEM cells HIV-1 protection, formazan growth assay for CCCCCCSCC(NC(=O)CCC(N)C(=O)O)C(=O)NCC(=O)O (stereo not drawn)
< 4.62

----------
test system: CEM cells HIV-1 protection, formazan growth assay; assay: NCI AIDS Antiviral Assay;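 active = compounds giving half or more protection of infected cells from virus-caused growth loss, again on retest; inactive = the rest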
// one of TRUE = active, FALSE = inactive, no free text

Worked examples, 2 compounds total:
compound	study-system	group-label
Nc1ccc(N=Nc2ccccc2)c(N)n1	CEM cells HIV-1 protection, formazan growth assay	FALSE
CCOC(=O)Nc1cc(C)c(NC(=O)CN(CC)CC)c(C)c1	CEM cells HIV-1 protection, formazan growth assay	FALSE

// param item: O=C(C/C(=N/O)C(=O)NC1=C(Cl)C(=O)c2ccccc2C1=O)CC(c1ccccc1)c1c(O)c2ccccc2oc1=O (stereo not drawn) ; yields the recorded call
FALSE

// param item: COc1ccc2oc(OC)c(CC=C(C)C)c(=O)c2c1C ; yields the recorded call
FALSE

// param item: CN(C)CCCCN1c2ccccc2Sc2cc(N=[N+]=[N-])ccc21 ; yields the recorded call
FALSE

// param item: N#C/C(=C\c1ccc2[nH]ccc2c1)C(=O)c1ccc(O)c(O)c1 ; yields the recorded call
FALSE

// param item: CC(=O)Oc1ccccc1[C@H]1CC(=O)C[C@H](c2ccccc2OC(C)=O)C12C(=O)c1ccccc1C2=O ; yields the recorded call
FALSE

// param item: C=C[C@]1(C)CC[C@]2(C)C(CC[C@@]3(C)C2C[C@H](O)[C@H](O)[C@@]3(C)O)C1 (stereo partly drawn) ; yields the recorded call
FALSE

// param item: CC(=O)NS(=O)(=O)c1ccc(NC(=O)c2ccccc2SC(=O)CCCCBr)cc1 ; yields the recorded call
TRUE

----------
The compounds listed here are annotated with their IC50.
tested on: CEM cells HIV-1 protection, formazan growth assay; experiment: NCI AIDS Antiviral Assay; settings: measured here: growth of uninfected CEM cells

Completed entries (count: 6):
compound	study-system	IC50
COc1ccc(SCc2ccc(C(=O)O)cc2)cc1	CEM cells HIV-1 protection, formazan growth assay	> 26.3 µM
Nc1c(Br)cc2c(c1Br)Cc1cc(Br)ccc1-2	CEM cells HIV-1 protection, formazan growth assay	> 200 µM
CC(=O)N1C(=O)CC23c4cccc([N+](=O)[O-])c4C(=O)N2CCCN13 (stereo unspecified)	CEM cells HIV-1 protection, formazan growth assay	> 398 µM
O=c1[nH]c(=O)n(COCc2ccccc2)cc1Nc1ccc(Br)cc1	CEM cells HIV-1 protection, formazan growth assay	> 200 µM
c1cc2cc3c4c5c(cc6ccc7cc8cc9c%10c8c8c7c6c5c8c5c%10c(c1C9N1CCOCCOCCOCCOCCOCC1)c2c45)C3 (stereo unspecified)	CEM cells HIV-1 protection, formazan growth assay	> 100 µM
CCOC(=O)c1c(N)sc2c1CCCCC2	CEM cells HIV-1 protection, formazan growth assay	> 95.5 µM

Could you tell me which IC50 is on file for COC(=O)C(=O)C(C(=O)OC)C(=O)C(=O)Nc1ccccc1C(N)=O (stereo unspecified) ?
> 74.1 µM

Could you tell me which IC50 is on file for O=S(=O)(NCCO)c1cc[c]([Sb](=[O])([OH])[OH])cc1 ?
> 200 µM

Could you tell me which IC50 is on file for CCOC(=O)NCC(OS(C)(=O)=O)C(CNC(=O)OCC)OS(C)(=O)=O (stereo unspecified) ?
> 120 µM

Could you tell me which IC50 is on file for O=c1nc2sc3ccc4ccccc4c3n2[nH]c1=O ?
> 47.9 µM

Could you tell me which IC50 is on file for CC1CN=C(Nc2ccccc2)S1 (stereo unspecified) ?
> 200 µM
